- measurement_notes: Half life in Beagle dog at 1 mg/kg, iv measured after 24 hrs
- Format: ADME, organism-based, Canis lupus familiaris
- measurement_parameters: in vivo
value_kind: half-life (h)
One number for each entry, in h.

Prompt line: // half-life lookup, key: `CCN1C(=O)N(c2c(F)c(OC)cc(OC)c2F)Cc2cnc3[nH]c(CN4CCOCC4)cc3c21`
Response line: 15.7

====

- measurement_notes: Permeability across apical to basolateral membrane in human Caco-2 cells at 50 uM incubated for 120 mins by LC-MS/MS analysis
- Type: ADME, cell-based
- measurement_parameters: read-out: permeability
Assign Papp A→B at 2 h, 50 µM to each entry below.
Give bare numbers, in ×10⁻⁶ cm/s.

Here are 8 compounds together with their reported answers.
# compound_structure_string, value_kind, recorded_result
rows = [
    ("COc1cc(OC)c(F)c(N2Cc3cnc4[nH]ccc4c3N([C@@H]3CCC[C@H]3O)C2=O)c1F", "Papp A→B at 2 h, 50 µM", 3.3),
    ("COc1cc(OC)c(F)c(N2Cc3cnc4[nH]ccc4c3N(C3CCN(C)CC3)C2=O)c1F", "Papp A→B at 2 h, 50 µM", 1.1),
    ("COc1cc(OC)c(F)c(N2Cc3cnc4[nH]ccc4c3N(C)C2=O)c1F", "Papp A→B at 2 h, 50 µM", 6.4),
    ("COc1cc(OC)c(F)c(N2Cc3cnc4[nH]ccc4c3N(CCO)C2=O)c1F", "Papp A→B at 2 h, 50 µM", 5.5),
    ("CCN1C(=O)N(c2c(F)c(OC)cc(OC)c2F)Cc2cnc3c(c21)CC(=O)N3", "Papp A→B at 2 h, 50 µM", 5.7),
    ("COc1cc(OC)c(F)c(N2Cc3cnc4[nH]cnc4c3N(C)C2=O)c1F", "Papp A→B at 2 h, 50 µM", 6.8),
    ("COc1cc(OC)c(F)c(N2Cc3cnc4[nH]ncc4c3N(C)C2=O)c1F", "Papp A→B at 2 h, 50 µM", 8.1),
    ("COc1cc(OC)c(F)c(N2Cc3cnc4[nH]ccc4c3N(C3CC3)C2=O)c1F", "Papp A→B at 2 h, 50 µM", 7.5),
]

Hello, I would appreciate it if you could give Papp A→B at 2 h, 50 µM for each entry below.
1. COc1cc(OC)c(F)c(N2Cc3cnc4c(c3N(C)C2=O)CC(=O)N4)c1F
2. CCN1C(=O)N(c2c(F)c(OC)cc(OC)c2F)Cc2cnc3[nH]ncc3c21
3. COc1cc(OC)c(F)c(N2Cc3cnc4[nH]ccc4c3N(CCN3CCN(C)CC3)C2=O)c1F

Response line:
1. 3.4
2. 8.3
3. 1

====

Provide the reported log10 AUC at 24 h of each item.
- measurement_notes: AUC in Sprague-Dawley rat at 2 mg/kg, po or 1 mg/kg, iv administered as cassette dose measured after 24 hrs
- Type: ADME, organism-based
- Parameters: time 24 hrs, dose 2 mg/kg
- measurement_parameters: in vivo
Heads up, the numbers here are log10 of AUC at 24 h in µM·h units.

Solved entries:
# molecule, log10 AUC at 24 h
records = [
    ("CCN1C(=O)N(c2c(F)c(OC)cc(OC)c2F)Cc2cnc3[nH]ncc3c21", 0.90),
    ("COc1cc(OC)c(F)c(N2Cc3cnc4[nH]ccc4c3N(CCN3CCN(C)CC3)C2=O)c1F", -0.70),
    ("CCN1CCN(CCc2cc3c4c(cnc3[nH]2)CN(c2c(F)c(OC)cc(OC)c2F)C(=O)N4C)CC1", -0.94),
    ("COc1cc(OC)c(F)c(N2Cc3cnc4[nH]ccc4c3N(CCO)C2=O)c1F", 0.26),
    ("COc1cc(OC)c(F)c(N2Cc3cnc4[nH]ccc4c3N(C3CC3)C2=O)c1F", 0.57),
    ("COc1cc(OC)c(F)c(N2Cc3cnc4[nH]c(C(=O)N(C)C)cc4c3N(C)C2=O)c1F", 1.36),
]

For each of the molecules below, state log10 AUC at 24 h.
1. CCN1CCC(Cc2cc3c4c(cnc3[nH]2)CN(c2c(F)c(OC)cc(OC)c2F)C(=O)N4C)CC1
2. CCN1C(=O)N(c2c(F)c(OC)cc(OC)c2F)Cc2cnc3[nH]c(CN4CCOCC4)cc3c21 [PEMIGATINIB]
3. COc1cc(OC)c(F)c(N2Cc3cnc4[nH]ccc4c3N(C3CCN(C)CC3)C2=O)c1F
4. COc1cc(OC)c(F)c(N2Cc3cnc4[nH]ccc4c3N(C)C2=O)c1F
5. CCN1CCN(Cc2cc3c4c(cnc3[nH]2)CN(c2c(F)c(OC)cc(OC)c2F)C(=O)N4C)CC1

Response line:
-0.78
0.88
-0.10
1.03
0.07

Each molecule below has a reported value. Please supply its log10 AUC at 24 h.
1. COc1cc(OC)c(F)c(N2Cc3cnc4[nH]ncc4c3N(C)C2=O)c1F
2. COc1cc(OC)c(F)c(N2Cc3cnc4[nH]c(CN5CCOCC5)cc4c3N(C)C2=O)c1F
3. COc1cc(OC)c(F)c(N2Cc3cnc4[nH]c(C(=O)N5CCN(C)CC5)cc4c3N(C)C2=O)c1F
4. COc1cc(OC)c(F)c(N2Cc3cnc4c(c3N(C)C2=O)CC(=O)N4)c1F
5. COc1cc(OC)c(F)c(N2Cc3cnc4[nH]cnc4c3N(C)C2=O)c1F

Response line:
1: 0.92; 2: 0.91; 3: 0.83; 4: 0.54; 5: 1.03

I have 2 molecules here; please give me log10 AUC at 24 h for each one.
1. COc1cc(OC)c(F)c(N2Cc3cnc4[nH]c(C5CCN(C)CC5)cc4c3N(C)C2=O)c1F
2. CCN1C(=O)N(c2c(F)c(OC)cc(OC)c2F)Cc2cnc3c(c21)CC(=O)N3

Response line:
-0.40
1.44
